Listed below: inhibition values for each entry.
Test system: Epidermal growth factor receptor (Homo sapiens), P00533 [L861Q]
Sequence (P00533 whole entry L861Q): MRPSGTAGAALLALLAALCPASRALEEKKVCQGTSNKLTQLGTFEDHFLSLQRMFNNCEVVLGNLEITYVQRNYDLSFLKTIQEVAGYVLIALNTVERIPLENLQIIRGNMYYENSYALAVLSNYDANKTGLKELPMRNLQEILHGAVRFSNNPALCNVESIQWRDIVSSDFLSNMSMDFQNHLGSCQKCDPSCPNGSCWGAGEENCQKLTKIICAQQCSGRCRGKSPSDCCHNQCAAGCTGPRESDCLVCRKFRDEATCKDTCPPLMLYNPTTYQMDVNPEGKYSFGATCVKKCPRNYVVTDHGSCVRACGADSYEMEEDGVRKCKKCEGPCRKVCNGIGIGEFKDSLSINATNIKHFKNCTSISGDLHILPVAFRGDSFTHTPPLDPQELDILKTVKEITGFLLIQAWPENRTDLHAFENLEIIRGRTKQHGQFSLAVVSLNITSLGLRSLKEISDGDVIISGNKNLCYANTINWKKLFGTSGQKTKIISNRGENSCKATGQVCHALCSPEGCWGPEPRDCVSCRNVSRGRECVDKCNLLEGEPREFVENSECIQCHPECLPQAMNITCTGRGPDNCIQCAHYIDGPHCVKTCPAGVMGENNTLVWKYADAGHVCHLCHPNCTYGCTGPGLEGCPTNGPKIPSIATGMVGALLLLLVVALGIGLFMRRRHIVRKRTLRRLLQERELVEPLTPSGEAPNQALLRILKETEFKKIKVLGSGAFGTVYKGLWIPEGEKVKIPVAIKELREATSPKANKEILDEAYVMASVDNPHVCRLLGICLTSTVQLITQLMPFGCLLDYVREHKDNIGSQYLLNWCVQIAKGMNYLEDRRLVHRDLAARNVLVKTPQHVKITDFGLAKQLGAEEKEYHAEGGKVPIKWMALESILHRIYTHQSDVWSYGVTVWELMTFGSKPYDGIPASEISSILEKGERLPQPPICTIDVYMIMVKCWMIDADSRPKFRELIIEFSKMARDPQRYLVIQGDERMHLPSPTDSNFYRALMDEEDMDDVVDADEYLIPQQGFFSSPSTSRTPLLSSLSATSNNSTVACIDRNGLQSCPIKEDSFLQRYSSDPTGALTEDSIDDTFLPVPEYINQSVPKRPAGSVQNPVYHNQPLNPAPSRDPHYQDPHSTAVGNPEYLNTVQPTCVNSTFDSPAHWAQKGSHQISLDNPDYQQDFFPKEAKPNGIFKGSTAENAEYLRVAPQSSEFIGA
CONDITION NOTES: at 1 µM
REPORTED ENDPOINT: inhibition (%)

[
  {
    "SMILES STR": "CNC(=O)c1cc(-c2ccc(F)cc2)cc(-c2ccc(S(=O)(=O)N3CCCC3)cc2)c1N",
    "U": "%",
    "RESULT": 4.86
  },
  {
    "SMILES STR": "COc1cc2ncn(-c3cc(OCc4ccccc4C(F)(F)F)c(C(=O)N(C)C)s3)c2cc1OC",
    "U": "%",
    "RESULT": -1.92
  },
  {
    "SMILES STR": "COc1ccc(-c2cc3c(N)ncnc3o2)cc1",
    "U": "%",
    "RESULT": -1.15
  },
  {
    "SMILES STR": "COc1cc(Nc2nccc(Nc3ccc4c(C)n[nH]c4c3)n2)cc(OC)c1OC",
    "U": "%",
    "RESULT": 15.6
  },
  {
    "SMILES STR": "CCOc1ccc2c(-c3ccnc(Nc4cccc(C(F)(F)F)c4)n3)cnn2n1",
    "U": "%",
    "RESULT": -0.42
  },
  {
    "SMILES STR": "COC(=O)c1sc(-n2cnc3cc(OC)c(OC)cc32)cc1OCc1ccccc1C(F)(F)F",
    "U": "%",
    "RESULT": 0.15
  },
  {
    "SMILES STR": "FC(F)(F)c1cccc(-c2nn3ncccc3c2-c2ccnc(Nc3ccc4c(c3)OCCO4)n2)c1",
    "U": "%",
    "RESULT": 33.4
  },
  {
    "SMILES STR": "c1cc(-c2cnn3nc(N4CCOCC4)ccc23)nc(NC2CC2)n1",
    "U": "%",
    "RESULT": 2.28
  },
  {
    "SMILES STR": "CCn1cc(-c2ccnc3[nH]ccc23)c(-c2cccc(NC(=O)Nc3ccc(OCc4ccccc4)cc3)c2)n1",
    "U": "%",
    "RESULT": 2.37
  },
  {
    "SMILES STR": "O=C(Nc1n[nH]c2cc(-c3ccc(F)cc3)ccc12)C1CC1",
    "U": "%",
    "RESULT": 2.33
  }
]

---

SUBJECT OF TEST: Protein kinase C beta type (Homo sapiens)
CONDITION NOTES: at 1 µM
Description: GSK_PKIS: PKC-beta2 (splice variant) mean inhibition at 1 uM [Nanosyn]
Tag: 1 if measured inhibition is not below 2%, 0 if it is.

[
  {
    "SMILES STR": "CN1CCC(n2cnc(-c3ccc(F)cc3)c2-c2ccnc(N)n2)CC1",
    "CATEGORY LABEL": 1
  },
  {
    "SMILES STR": "CCOc1ccc2c(-c3ccnc(Nc4cccc(C(F)(F)F)c4)n3)cnn2n1",
    "CATEGORY LABEL": 0
  },
  {
    "SMILES STR": "Clc1ccc(-c2nn3ncccc3c2-c2ccnc(Nc3ccccc3)n2)cc1",
    "CATEGORY LABEL": 1
  },
  {
    "SMILES STR": "CS(=O)(=O)CCNCc1ccc(-c2ccc3ncnc(Nc4ccc(OCc5ccccc5)c(C(F)(F)F)c4)c3c2)o1",
    "CATEGORY LABEL": 0
  },
  {
    "SMILES STR": "Nc1nc(-c2cccc(Cl)c2)c(-c2ccc3ncccc3n2)s1",
    "CATEGORY LABEL": 1
  }
]

---

Test system: Tyrosine-protein kinase ABL1 (Homo sapiens), P00519 [M351T]
CONDITION NOTES: at 1 µM
REPORTED ENDPOINT: inhibition (%)

[
  {
    "SMILES STR": "CCn1c(-c2nonc2N)nc2c(C#CC(C)(C)O)ncc(OC3CCNCC3)c21",
    "REPORTED ENDPOINT": "inhibition",
    "RESULT": 0.51
  },
  {
    "SMILES STR": "NS(=O)(=O)c1ccc(N/N=C2\\C(=O)Nc3ccc4ncccc4c32)cc1",
    "REPORTED ENDPOINT": "inhibition",
    "RESULT": 48.9
  },
  {
    "SMILES STR": "CN1CCC(n2cnc(-c3ccc(F)cc3)c2-c2ccnc(N)n2)CC1",
    "REPORTED ENDPOINT": "inhibition",
    "RESULT": 7.75
  },
  {
    "SMILES STR": "CN1CCC(n2cnc(-c3ccc(F)cc3)c2-c2ccnc(Nc3ccccc3)n2)CC1",
    "REPORTED ENDPOINT": "inhibition",
    "RESULT": 10.2
  },
  {
    "SMILES STR": "CCNC(=O)O[C@H]1CN[C@H](C#Cc2cc3ncnc(Nc4ccc(OCc5cccc(F)c5)c(Cl)c4)c3s2)C1",
    "REPORTED ENDPOINT": "inhibition",
    "RESULT": 0.66
  },
  {
    "SMILES STR": "COc1ccc2[nH]c3c4[nH]c5ccc(OC)cc5c4c4c(c3c2c1)C(=O)NC4=O",
    "REPORTED ENDPOINT": "inhibition",
    "RESULT": 47.7
  },
  {
    "SMILES STR": "c1ccc(COc2ccc(Nc3ncnc4ccc(-c5ccco5)cc34)cc2)cc1",
    "REPORTED ENDPOINT": "inhibition",
    "RESULT": 2.41
  },
  {
    "SMILES STR": "N#Cc1c(NC(=O)CN2CCOCC2)sc2c1CCCC2",
    "REPORTED ENDPOINT": "inhibition",
    "RESULT": 4.91
  },
  {
    "SMILES STR": "NC(=O)c1sc(-n2cnc3ccc(C(F)(F)F)cc32)cc1OCc1ccccc1Br",
    "REPORTED ENDPOINT": "inhibition",
    "RESULT": 3.37
  },
  {
    "SMILES STR": "O=C(O[C@H]1CN[C@H](C#Cc2cc3ncnc(Nc4ccc(Cc5ccccc5)cc4)c3s2)C1)N1CCOCC1",
    "REPORTED ENDPOINT": "inhibition",
    "RESULT": -0.59
  },
  {
    "SMILES STR": "Fc1ccc(-c2nn3ccccc3c2-c2ccncc2)cc1",
    "REPORTED ENDPOINT": "inhibition",
    "RESULT": 8.75
  },
  {
    "SMILES STR": "CCCN1CCC(c2ccc(Nc3nc(Nc4cc(F)ccc4C(N)=O)c4cc[nH]c4n3)c(OC)c2)CC1",
    "REPORTED ENDPOINT": "inhibition",
    "RESULT": 7.76
  },
  {
    "SMILES STR": "Cc1cccc2c1NC(=O)/C2=N\\Nc1ccc(S(N)(=O)=O)cc1",
    "REPORTED ENDPOINT": "inhibition",
    "RESULT": 7.81
  },
  {
    "SMILES STR": "c1cc(-c2cnn3nc(N4CCOCC4)ccc23)nc(NC2CC2)n1",
    "REPORTED ENDPOINT": "inhibition",
    "RESULT": 4.81
  },
  {
    "SMILES STR": "CC(=O)NCc1cccc(C#Cc2cncnc2Nc2ccc(OCc3cccc(F)c3)c(Cl)c2)c1",
    "REPORTED ENDPOINT": "inhibition",
    "RESULT": -0.38
  },
  {
    "SMILES STR": "COc1cc(N2CCN(C(C)C)CC2)ccc1Nc1nc(Nc2ccc(F)cc2C(N)=O)c2cc[nH]c2n1",
    "REPORTED ENDPOINT": "inhibition",
    "RESULT": 2.15
  },
  {
    "SMILES STR": "CS(=O)(=O)CCNCc1ccc(-c2ccc3ncnc(Nc4ccc(OCc5ccccc5)c(C(F)(F)F)c4)c3c2)o1",
    "REPORTED ENDPOINT": "inhibition",
    "RESULT": 0.91
  },
  {
    "SMILES STR": "COc1ccc(-c2cc(-c3c[nH]nc3-c3ccccn3)ccn2)cc1",
    "REPORTED ENDPOINT": "inhibition",
    "RESULT": 63.3
  },
  {
    "SMILES STR": "CCc1nn2ncccc2c1-c1ccnc(NC2CC2)n1",
    "REPORTED ENDPOINT": "inhibition",
    "RESULT": 4.54
  },
  {
    "SMILES STR": "Cc1cccc(Nc2ncc(-c3ccccc3)o2)c1",
    "REPORTED ENDPOINT": "inhibition",
    "RESULT": 21.6
  },
  {
    "SMILES STR": "O=C(Nc1n[nH]c2cc(-c3ccc(F)cc3)ccc12)C1CC1",
    "REPORTED ENDPOINT": "inhibition",
    "RESULT": 55.2
  }
]
